# target.or.test.system: V₂ receptor (Rattus norvegicus, UniProt Q00788)
# Construct: Using rat kidney plasma membrane preparations
# Sequence (Q00788 whole entry): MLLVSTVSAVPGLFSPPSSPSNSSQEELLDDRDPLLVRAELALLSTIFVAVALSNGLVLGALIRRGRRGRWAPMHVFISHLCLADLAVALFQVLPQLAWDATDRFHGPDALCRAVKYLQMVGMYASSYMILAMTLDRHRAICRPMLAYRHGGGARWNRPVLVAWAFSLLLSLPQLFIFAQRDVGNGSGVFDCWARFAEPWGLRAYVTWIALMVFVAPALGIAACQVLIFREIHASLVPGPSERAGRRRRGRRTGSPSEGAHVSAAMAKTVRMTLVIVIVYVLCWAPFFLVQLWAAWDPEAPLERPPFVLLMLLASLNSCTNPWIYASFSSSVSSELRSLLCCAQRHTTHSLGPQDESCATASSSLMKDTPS
# assay.explanation: V₂ receptor binding assay ([³H]-Arg-vasopressin, rat kidney plasma membrane preparations)
# conditions: 4°C for 3 hours
Items are presented alongside their recorded pIC50.
// pIC50 is dimensionless: -log10 of concentration (M)

molecule | readout | recorded.value
Cc1ccccc1C(=O)Nc1ccc(C(=O)N2CCCc3ccccc32)cc1 | pIC50 | 6.70
O=C(Nc1ccc(C(=O)N2CCCC(O)c3ccccc32)cc1)c1cc(Cl)cc(Cl)c1 (stereo not drawn) | pIC50 | 7.92
NC1CCCN(C(=O)c2ccc(NC(=O)c3ccccc3Cl)cc2)c2ccccc21 (stereo not drawn) | pIC50 | 7.28
COc1cc(OC)cc(C(=O)Nc2ccc(C(=O)N3CCCCc4ccccc43)cc2)c1 | pIC50 | 6.82
CN(C)C1CCCN(C(=O)c2ccc(NC(=O)c3ccccc3Br)cc2)c2ccccc21 (stereo not drawn) | pIC50 | 7.82
CN(C)C1CCCN(C(=O)c2ccc(NC(=O)c3cc(F)cc(F)c3)cc2)c2ccccc21 (stereo not drawn) | pIC50 | 7.70
O=C(Cc1ccccc1)Nc1ccc(C(=O)N2CCCc3ccccc32)cc1 | pIC50 | 5.99
CN(C)C1CCCN(C(=O)c2ccc(NC(=O)c3ccccc3C(F)(F)F)cc2)c2ccccc21 (stereo not drawn) | pIC50 | 7.41

Now look at this one.
Query string: Quick check: pIC50 of Cc1cccc(OCC(=O)Nc2ccc(C(=O)N3CCCCc4ccccc43)cc2)c1 ?
Result string: 7.49

----------
# target.or.test.system: V₂ receptor (Rattus norvegicus)
# Construct: Using rat kidney plasma membrane preparations
# assay.explanation: V₂ receptor binding assay ([³H]-Arg-vasopressin, rat kidney plasma membrane preparations)
# conditions: 4°C for 3 hours
In plain terms, low IC50, meaning strictly below 80 nM, gives MET, and everything else gives NOT MET.

These recorded examples may help you get a feel for the data.
molecule | category
Cc1ccccc1C(=O)Nc1ccc(C(=O)N2CCCC(NC(=O)CNC(=O)OC(C)(C)C)c3ccccc32)cc1 (stereo not shown) | NOT MET
CNC(=O)NC1CCCN(C(=O)c2ccc(NC(=O)c3ccccc3C)cc2)c2ccccc21 (stereo not shown) | NOT MET
C=C1CCCN(C(=O)c2ccc(NC(=O)c3ccccc3C)cc2)c2ccccc21 | MET
Cc1ccccc1C(=O)Nc1ccc(C(=O)N2CCCC(N(C)CC(N)=O)c3ccccc32)cc1 (stereo not shown) | MET
Cc1ccccc1C(=O)Nc1ccc(C(=O)N2CCCC(CN(C)C)c3ccccc32)cc1 (stereo not shown) | MET

Query string: Take the molecule Cc1ccccc1C(=O)Nc1ccc(C(=O)N2CCCC(NC3CCN(Cc4ccccc4)CC3)c3ccccc32)cc1 (stereo not shown) and say whether its IC50 is less than 80 nM.
Result string: MET

----------
Items are presented alongside their recorded pIC50.
# target.or.test.system: V₂ receptor (Rattus norvegicus)
# Construct: Using rat kidney plasma membrane preparations
# assay.explanation: V₂ receptor binding assay ([³H]-Arg-vasopressin, rat kidney plasma membrane preparations)
# conditions: 4°C for 3 hours
// pIC50 is dimensionless: -log10 of concentration (M)

compound | recorded.value
COc1cccc(C(=O)Nc2ccc(C(=O)N3CCCc4ccccc43)cc2)c1 | 6.40
CNC1CCCN(C(=O)c2ccc(NC(=O)c3ccccc3Cl)cc2)c2ccccc21 (stereo not shown) | 7.42
Cc1cc(NC(=O)c2ccccc2Cl)ccc1C(=O)N1CCCC(N(C)C)c2ccccc21 (stereo not shown) | 7.64

Query string: Quick check: pIC50 of CNC1CCCN(C(=O)c2ccc(NC(=O)c3ccccc3Cl)c(OC)c2)c2ccc(Cl)cc21 (stereo not shown) ?
Result string: 7.92

----------
# target.or.test.system: V₂ receptor (Rattus norvegicus, UniProt Q00788)
# Construct: Using rat kidney plasma membrane preparations
# assay.explanation: V₂ receptor binding assay ([³H]-Arg-vasopressin, rat kidney plasma membrane preparations)
# conditions: 4°C for 3 hours
readout: IC50 (nM)
Give just the number in nM; leave the unit off.

Below: 2 compounds and their reported IC50.
compound | target.or.test.system | unit.abbrev | IC50
CCN(CC(=O)Nc1ccc(C(=O)N2CCCCc3ccccc32)cc1)c1ccccc1 | V₂ receptor (Rattus norvegicus, UniProt Q00788) | nM | 6
O=C(Nc1ccc(C(=O)N2CCCCc3ccccc32)cc1)C1CCCCC1 | V₂ receptor (Rattus norvegicus, UniProt Q00788) | nM | 25

Query string: Quick check: IC50 of NCCCCOc1ccccc1C(=O)Nc1ccc(C(=O)N2CCCCc3ccccc32)cc1 ?
Result string: 12

Query string: How about this compound: Cc1ccccc1C(=O)Nc1ccc(C(=O)N2CCC(C)C(N(C)C)c3ccccc32)cc1 (stereo not drawn)
Result string: 16

Query string: How about this compound: CN1CCN(C(=O)c2ccc(NC(=O)C3CCCCC3)cc2)c2ccccc21
Result string: 1300

----------
# target.or.test.system: V₂ receptor (Rattus norvegicus)
# Construct: Using rat kidney plasma membrane preparations
# assay.explanation: V₂ receptor binding assay ([³H]-Arg-vasopressin, rat kidney plasma membrane preparations)
# conditions: 4°C for 3 hours
In plain terms, low IC50, meaning strictly below 100 nM, gives y, and everything else gives n.

These recorded examples may help you get a feel for the data.
molecule | category
CNCC(=O)NC1CCCN(C(=O)c2ccc(NC(=O)c3ccccc3C)cc2)c2ccccc21 (centres unmarked) [compound 291] | n
O=C(Nc1ccc(C(=O)N2CCCC(N3CCCCC3)c3ccccc32)cc1)c1ccccc1Cl (centres unmarked) [compound 202] | n

Query string: Take the molecule Cc1ccccc1C(=O)Nc1ccc(C(=O)N2CCCC(N(C)CCCOC3CCCCO3)c3ccccc32)cc1 (centres unmarked) [compound 267] and say whether its IC50 is less than 100 nM.
Result string: n

Query string: How about this molecule: O=C(Nc1ccc(C(=O)N2CCCC(N3CCN(Cc4ccccc4)CC3)c3ccccc32)cc1)c1ccccc1Cl (centres unmarked) [compound 203]
Result string: y

Query string: How about this molecule: CCN(CC)CCOc1ccccc1C(=O)Nc1ccc(C(=O)N2CCCCc3ccccc32)cc1 [compound 71]
Result string: y

----------
# target.or.test.system: V₂ receptor (Rattus norvegicus, UniProt Q00788)
# Construct: Using rat kidney plasma membrane preparations
# assay.explanation: V₂ receptor binding assay ([³H]-Arg-vasopressin, rat kidney plasma membrane preparations)
# conditions: 4°C for 3 hours
Items are presented alongside their recorded pIC50.
// pIC50 is dimensionless: -log10 of concentration (M)

molecule | target.or.test.system | pIC50
O=C(Nc1ccc(C(=O)N2CCCCc3ccccc32)cc1)c1cccc(C(F)(F)F)c1 | V₂ receptor (Rattus norvegicus, UniProt Q00788) | 6.85
N#Cc1cccc(C(=O)Nc2ccc(C(=O)N3CCCc4ccccc43)cc2)c1 | V₂ receptor (Rattus norvegicus, UniProt Q00788) | 6.24

Query string: Quick check: pIC50 of CN(C)C1CCN(C(=O)c2ccc(NC(=O)c3cc(Cl)cc(Cl)c3)cc2)c2ccccc21 (stereo not shown) ?
Result string: 7.96

Query string: How about this molecule: CC1CCc2ccccc2N1C(=O)c1ccc(NC(=O)c2cc(Cl)cc(Cl)c2)cc1 (stereo not shown)
Result string: 6.96

Query string: How about this molecule: O=C(Nc1ccc(C(=O)N2CCCCCc3ccccc32)cc1)C1CCCCC1
Result string: 7.31

Query string: How about this molecule: CNC1CCCN(C(=O)c2ccc(NC(=O)c3ccccc3Cl)cc2Cl)c2ccccc21 (stereo not shown)
Result string: 8.40

Query string: How about this molecule: Cc1ccccc1C(=O)Nc1ccc(C(=O)N2CCCCc3ccccc32)cc1
Result string: 7.74

Query string: How about this molecule: Cc1ccc(NCC(=O)Nc2ccc(C(=O)N3CCCCc4ccccc43)cc2)c(C)c1
Result string: 6.55

Query string: How about this molecule: Cc1ccccc1N(C)CC(=O)Nc1ccc(C(=O)N2CCCC(N(C)C)c3ccccc32)cc1 (stereo not shown)
Result string: 7.14

Query string: How about this molecule: CCN(CC)CCOc1cc(C(=O)N2CCCC(N(C)C)c3ccccc32)ccc1NC(=O)c1ccccc1C (stereo not shown)
Result string: 6.48

----------
Items are presented alongside their recorded IC50.
# target.or.test.system: V₂ receptor (Rattus norvegicus, UniProt Q00788)
# Construct: Using rat kidney plasma membrane preparations
# assay.explanation: V₂ receptor binding assay ([³H]-Arg-vasopressin, rat kidney plasma membrane preparations)
# conditions: 4°C for 3 hours
# Description: Using rat kidney plasma membrane preparations prepared according to O. Hechter's method [cf: J. Bio. […] The amount of [³H]-vasopressin combined with the membrane is measured by liquid scintillation counter and the rate of the inhibitory effect of the test compound is estimated according to the following equation. […] The results are expressed as IC₅₀ values, which is the concentration of the test compound required to achieve the inhibitory effect in the rate of 50 %.
Give just the number in nM; leave the unit off.

molecule | recorded.value
O=C(Nc1ccc(C(=O)N2CCCc3ccccc32)cc1)C1CCCCCCC1 [compound 16] | 170
O=C(Nc1ccc(C(=O)N2CCCCc3ccccc32)cc1)c1cccc(Cl)c1 [compound 30] | 29
Cc1ccccc1C(=O)Nc1ccc(C(=O)N2CCCC(CNC=O)c3ccccc32)cc1 (stereo not shown) [compound 269] | 3

Query string: Quick check: IC50 of CNC1CCCCN(C(=O)c2ccc(NC(=O)c3ccccc3C)cc2)c2ccccc21 (stereo not shown) [compound 320] ?
Result string: 39
